- ASSAY TARGET: T1, hPD-1 mIg fusion protein (human; mouse, UniProt Q15116 25-170)
- T1 construct: extracellular domain; not shown: CH2-CH3 domain of mouse IgG2a heavy chain (plasmid pmIgG)
- T1 sequence (Q15116 25-170): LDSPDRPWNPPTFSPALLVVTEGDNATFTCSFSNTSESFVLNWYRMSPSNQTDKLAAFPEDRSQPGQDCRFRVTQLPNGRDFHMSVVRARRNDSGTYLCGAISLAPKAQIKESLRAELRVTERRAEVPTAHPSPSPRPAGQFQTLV
- EXPERIMENTAL PROTOCOL: SPR Biacore T100, hPD-1mIg immobilised by amine coupling, antibody as analyte
This section presents binders with their documented Kd values.
Kindly answer with a numeric value in nM, unit omitted.

Worked cases, answers included:
{"BINDER": "Variant 7 (antibody, V domains shown, Humanized; VH variant c, VK variant a; Constant regions not spelled out; also called mutant combination 7) VH: EVKLLESGGGLVQPGGSLRLSCAASGFTFSSYTMSWVRQAPGKGLEWVSYISHGGGDTYYPDSVKGRFTISRDNSKNTLYLQMNSLRAEDTAVYYCARHSGYERGYYYVMDYWGKGTTVTVSS VL: DIVMTQSPDSLAVSLGERATINCKSSESVDYYGFSFLNWFQQKPGQPPKLLIYAASNRESGVPDRFSGSGSGTDFTLTISSLQAEDVAVYYCQQSKEVPWTFGQGTKLEIK", "Kd (nM)": 0.291}
{"BINDER": "Variant 6 (antibody, V domains shown, Humanized; VH variant b, VK variant c; Constant regions not spelled out; chimeric parent has human IgG4-S228P and human kappa; also called mutant combination 6) VH: EVQLVESGGGLVQPGGSLRLSCAASGFTFSSYTMSWVRQAPGKGLEWVSYISHGGGDTYYPDSVKGRFTISRDNSKNTLYLQMNSLRAEDTAVYYCARHSGYERGYYYVMDYWGQGTLVTVSS VL: DIQLTQSPDSLSVSLGERATINCKASESVDYYGFSFLNWFQQKPGQPPKLLIYAASNRQSGVPDRFSGSGSGTDFTLTISSLQAEDVAVYFCQQSKEVPWTFGQGTKLEIKR", "Kd (nM)": 0.0898}
{"BINDER": "Variant 8 (antibody, V domains shown, Humanized; VH variant c, VK variant b; Constant regions not spelled out; also called mutant combination 8) VH: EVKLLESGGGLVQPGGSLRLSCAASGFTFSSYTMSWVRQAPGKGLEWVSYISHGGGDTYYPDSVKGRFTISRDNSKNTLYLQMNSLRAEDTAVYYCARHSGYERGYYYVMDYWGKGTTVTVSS VL: DIVMTQSPDSLAVSLGERATINCKASESVDYYGFSFLNWFQQKPGQPPKLLIYAASNRESGVPDRFSGSGSGTDFTLTISSLQAEDVAVYYCQQSKEVPWTFGQGTKLEIK", "Kd (nM)": 0.358}

Please examine the following record next.
Looking up Variant 2 (antibody, V domains shown, Humanized; VH variant a, VK variant b; Constant regions not spelled out; chimeric parent has human IgG4-S228P and human kappa; also called mutant combination 2) VH: EVQLVESGGGLVQPGGSLRLSCAASGFTFSSYTMSWVRQAPGKGLEWVSYISHGGGDTYYADSVKGRFTISRDNSKNTLYLQMNSLRAEDTAVYYCARHSGYERGYYYVMDYWGQGTLVTVSS VL: DIVMTQSPDSLAVSLGERATINCKASESVDYYGFSFLNWFQQKPGQPPKLLIYAASNRESGVPDRFSGSGSGTDFTLTISSLQAEDVAVYYCQQSKEVPWTFGQGTKLEIKR , I found its Kd recorded as 0.363
